Tested on: Mycosphaerella graminicola; Anamorph: Septoria tritici; Bayer Code SEPTTR
assay: Leaf blotch of wheat, foliar fungicide treatment, one day protectant (1DP) or three day curative (3DC)
Assay type: in vivo, Septoria tritici on wheat plants (variety Yuma)
cond: Zymoseptoria tritici, 24 h, one day protectant (1DP), 25 ppm, rating of percent disease control, read-out: SETTTR 1DP 25 ppm
Record form. Attribute: pest or weed control at 25 ppm. Fill in for each entry.

Query: I am curious: what pest or weed control at 25 ppm value has been reported for "COc1ccccc1COc1ncc(F)c(N)n1" ?
Result: 76 to 100%

Query: I am curious: what pest or weed control at 25 ppm value has been reported for "Cc1cccc(COc2ncc(F)c(N)n2)c1" ?
Result: 76 to 100%

Query: I am curious: what pest or weed control at 25 ppm value has been reported for "COc1ccc(Br)c(COc2ncc(F)c(N)n2)c1F" ?
Result: 26 to 50%

Query: I am curious: what pest or weed control at 25 ppm value has been reported for "Nc1nc(OC(=O)c2snc(Cl)c2Cl)ncc1F" ?
Result: 51 to 75%

Query: I am curious: what pest or weed control at 25 ppm value has been reported for "OCNc1nc(OCc2cccs2)ncc1F" ?
Result: 76 to 100%

Query: I am curious: what pest or weed control at 25 ppm value has been reported for "CCNN(CC)c1nc(OCc2ccc(F)cc2)ncc1F" ?
Result: 0 to 25%

Query: I am curious: what pest or weed control at 25 ppm value has been reported for "C/C(=N\Nc1nc(OCc2ccc(C)cc2)ncc1F)c1ccc(Cl)nc1" ?
Result: 26 to 50%

Query: I am curious: what pest or weed control at 25 ppm value has been reported for "Fc1cnc(OCc2ccccc2)nc1NNC1CCCCC1" ?
Result: 0 to 25%

Query: I am curious: what pest or weed control at 25 ppm value has been reported for "Cn1ccc(COc2ncc(F)c(NCOCc3ccccc3)n2)n1" ?
Result: 0 to 25%

Query: I am curious: what pest or weed control at 25 ppm value has been reported for "CCOC(=O)Nc1nc(OCc2cccc(C#N)c2)ncc1F" ?
Result: 76 to 100%

Query: I am curious: what pest or weed control at 25 ppm value has been reported for "Cc1ccc(COc2ncc(F)c(NNC3CCCCC3)n2)cc1" ?
Result: 0 to 25%

Query: I am curious: what pest or weed control at 25 ppm value has been reported for "CCOCNc1nc(OCc2ccc(F)cc2)ncc1F" ?
Result: 51 to 75%
